Data credit: PubChem BioAssay AID1259407

- Tested on: CCRIS mutagenicity, Ames/micronucleus/aberration tests
- assay_protocol: CCRIS mutagenicity studies
- protocol_conditions: Test System: AMES SALMONELLA TYPHIMURIUM; Strain/Indicator: TA7006; Metabolic Activation: NONE; Method: FLUCTUATION (MICROTITER)
Calls of active or inactive are those of the source. How the calls were made is not given here.
measure_name: mutagenic call

>  <compound>
CCC1CO1 (configuration not stated)

>  <mutagenic call>
inactive; negative

$$$$
>  <compound>
CC(C)(OO)c1ccccc1

>  <mutagenic call>
active; positive

$$$$
>  <compound>
O=c1c(O)c(-c2ccc(O)c(O)c2)oc2cc(O)cc(O)c12

>  <mutagenic call>
inactive; negative

$$$$
>  <compound>
CC(C)CON=O

>  <mutagenic call>
inactive; negative

$$$$
>  <compound>
CS(C)=O

>  <mutagenic call>
inactive; negative

$$$$

For CCRIS mutagenicity, Ames/micronucleus/aberration tests, give the measured mutagenic call of the entry Nc1ncn([C@@H]2O[C@H](CO)[C@@H](O)[C@H]2O)c(=O)n1
active; positive

For CCRIS mutagenicity, Ames/micronucleus/aberration tests, give the measured mutagenic call of the entry Nc1ccc(Oc2ccc(N)cc2)cc1
inactive; negative

====

- Tested on: CCRIS mutagenicity, Ames/micronucleus/aberration tests
- assay_protocol: CCRIS mutagenicity studies
- protocol_conditions: Test System: AMES SALMONELLA TYPHIMURIUM; Strain/Indicator: TA98; Metabolic Activation: NONE; Method: SUSPENSION/PLATE
The source made the active and inactive calls. No rule for the calls is given here.
I would appreciate it if you answered using one of these outcomes: T for active, F for inactive

Example cases with answers are listed next.
>  <smiles_entry>
O=C(O)CN(CC(=O)O)CC(=O)O

>  <discrete_label>
F

$$$$
>  <smiles_entry>
CCC[CH2][Sn]=[O]

>  <discrete_label>
F

$$$$
>  <smiles_entry>
[Cl][Sn]([Cl])([Cl])[Cl]

>  <discrete_label>
F

$$$$
>  <smiles_entry>
Cc1ccc([N+](=O)[O-])cc1NO

>  <discrete_label>
F

$$$$

Tell me the assay call for O=Cc1ccc([N+](=O)[O-])cc1[N+](=O)[O-] please.
T

====

- System: CCRIS mutagenicity, Ames/micronucleus/aberration tests
- assay_protocol: CCRIS mutagenicity studies
- protocol_conditions: Test System: E. COLI; Strain/Indicator: WP2 UVRA (PKM101); Metabolic Activation: NONE; Method: STANDARD PLATE
Calls of active or inactive are those of the source. How the calls were made is not given here.
I would appreciate it if you answered using one of these outcomes: active, inactive

Example cases with answers are listed next.
>  <smiles_entry>
NC(=O)c1cc(N2CC2)c([N+](=O)[O-])cc1[N+](=O)[O-]

>  <discrete_label>
active

$$$$
>  <smiles_entry>
CC(C)(OO)c1ccccc1

>  <discrete_label>
active

$$$$
>  <smiles_entry>
COc1cccc(N)c1

>  <discrete_label>
inactive

$$$$
>  <smiles_entry>
CC(C)n1c(/C=C/[C@H](O)C[C@H](O)CC(=O)O)c(-c2ccc(F)cc2)c2ccccc21

>  <discrete_label>
inactive

$$$$
>  <smiles_entry>
COC(=O)CCl

>  <discrete_label>
inactive

$$$$

Tell me the assay call for CC(=O)CC(=O)Nc1ccccc1C please.
inactive

====

- Test system: CCRIS mutagenicity, Ames/micronucleus/aberration tests
- assay_protocol: CCRIS mutagenicity studies
- protocol_conditions: Test System: AMES SALMONELLA TYPHIMURIUM; Strain/Indicator: TA1538; Metabolic Activation: RAT, LIVER, S-9, AROCLOR 1254 (10%); Method: STANDARD PLATE
The source made the active and inactive calls. How the calls were made is not given here.
measure_name: mutagenic call

Known results for compounds:
>  <compound>
O=C([O-])c1ccc2ccccc2c1.[Mn+2].[O-]C(O)c1ccc2ccccc2c1

>  <mutagenic call>
inactive; negative

$$$$
>  <compound>
CC(O)CN1CC(C)OC1=O (stereo unspecified)

>  <mutagenic call>
inactive; negative

$$$$
>  <compound>
O=C1c2ccc3nc(-c4ccccc4)sc3c2C(=O)c2ccc3nc(-c4ccccc4)sc3c21

>  <mutagenic call>
inactive; negative

$$$$
>  <compound>
C=C[Si](C)(C)N[Si](C)(C)C=C

>  <mutagenic call>
inactive; negative

$$$$
>  <compound>
C=C[Si](C)(C)CCl

>  <mutagenic call>
inactive; negative

$$$$

Answer with the recorded mutagenic call for the compound listed here: N#Cc1cc(Br)c(O)c(Br)c1
inactive; negative
